Test system: Glycine max
assay.info: Post-emergence phytotoxicity against Glycine max (soybean) assessed as mortality at 6.3 g a.i/10 a applied 11 days after germination as foliar spray
Assay type: organism-based
protocol.conditions: in vivo, other, 264 h
property.label: Activity

1) COc1cc(OC)nc(Oc2ccccc2C(=O)O)n1; Toxic
2) COc1cc(OC)nc(Sc2cccc(SC)c2C(=O)O)n1; Toxic
3) COC(=O)c1cccc(Oc2nc(OC)cc(OC)n2)c1C(=O)O; Toxic
4) COc1cc(OC)nc(Sc2cccc(C)c2C(=O)O)n1; Toxic
5) COc1cc(OC)nc(Sc2cccc([N+](=O)[O-])c2C(=O)O)n1; Toxic
6) COc1cc(OC)nc(Sc2cccc(OC(C)C)c2C(=O)O)n1; Toxic
7) COc1cc(OC)nc(Sc2cccc(I)c2C(=O)O)n1; Toxic
8) COc1cc(OC)nc(Sc2cccc(C(F)(F)F)c2C(=O)O)n1; Toxic
9) CCOc1cccc(Sc2nc(OC)cc(OC)n2)c1C(=O)O; Toxic
10) CCCOc1cccc(Sc2nc(OC)cc(OC)n2)c1C(=O)O; Toxic
11) COc1cc(OC)nc(Sc2cccc(OC)c2C(=O)O)n1; Toxic
12) CCSc1cccc(Sc2nc(OC)cc(OC)n2)c1C(=O)O; Toxic
13) COc1cc(OC)nc(Sc2cccc(Br)c2C(=O)O)n1; Toxic
